System: KM12 colon
Assay: NCI-60 one-dose screen, 48 h
Settings: 10 µM unless noted
The panel holds about 83,000 compounds, 20% with a hit somewhere; the sample as a whole holds those more often. The source made the active and inactive calls. The calls were made as follows: active = growth percent below 10; inactive = the rest.
Please state which outcome applies, choosing from active, inactive

Some solved cases for reference:
COMPOUND	CATEGORY
Cc1ccccc1Nc1nnc(-c2c[nH]c3ccccc23)o1	inactive
COc1ccc2[nH]c(=O)c(CSc3ccccc3Nc3nccc(-c4ccc(C(F)(F)F)cc4)n3)cc2c1	inactive
COc1ccc(/C=C/c2nc3ccccc3n3c(-c4cccc([N+](=O)[O-])c4)nnc23)cc1	active

-- ask Tell me the recorded outcome of this test for "CCOC(=O)c1ccc(NC(=S)NC(=O)c2cccc(NC(=O)c3ccc(C)cc3)c2)cc1" .
-- reply inactive

-- ask Tell me the recorded outcome of this test for "COC(=O)c1cccc(Oc2ccc(NC(=O)Nc3cc(C(F)(F)F)ccc3F)cc2)c1" .
-- reply inactive

-- ask Tell me the recorded outcome of this test for "Nc1cc(-c2c[nH]c3ccc(F)cc23)nc2cc(-c3c[nH]c4ccccc34)nn12" .
-- reply active

-- ask Tell me the recorded outcome of this test for COc1cc(C2CC(c3cc(OC)c(OC)c(OC)c3)=Nc3c(N)nc(N)nc3N2)ccc1Oc1nc(Nc2ccc(F)cc2)nc(N(C)C)n1 (centres undefined) .
-- reply inactive

-- ask Tell me the recorded outcome of this test for CCN1C(=O)N(CC)C2NNC(Sc3c(C(=O)O)c4ccccc4n(CC(C)C)c3=O)=NC21 (centres undefined) .
-- reply inactive

-- ask Tell me the recorded outcome of this test for "CN1C(=O)/C(=C/c2ccco2)S/C1=N/c1nccs1" .
-- reply inactive

-- ask Tell me the recorded outcome of this test for "COc1ccc2[nH]c(O)c(N=Nc3nc(-c4ccc(Br)cc4)cs3)c2c1" .
-- reply inactive

-- ask Tell me the recorded outcome of this test for "COc1ccc(C(=O)c2c(N)c(C#N)cn2-c2ccc([N+](=O)[O-])cc2)cc1" .
-- reply inactive

-- ask Tell me the recorded outcome of this test for COc1ccc2c(c1)C(Sc1ccc(F)cc1)c1c(nc(N)c(C#N)c1N)O2 (centres undefined) .
-- reply inactive

-- ask Tell me the recorded outcome of this test for "O=C(Nc1ccc(Cl)c(C(F)(F)F)c1)N1CCN(c2cc(-c3cn(-c4ccccc4)nc3-c3cccc(O)c3)ccn2)CC1" .
-- reply active
